biological target: T1, cynomolgus monkey IL-6 (cynomolgus monkey, UniProt P79341 28-212, limits assumed); assay: SPR (Biacore), periplasmic Fab
T1 construct: Immobilised on the Biacore chip
Item-by-item account of kon
Use M⁻¹ s⁻¹ as the unit, but write only the number.

[[record]]
binder = "55C11 (Fab, V domains shown, Periplasmic Fab; Suffix 'f' not explained; also called 55C11f) VH: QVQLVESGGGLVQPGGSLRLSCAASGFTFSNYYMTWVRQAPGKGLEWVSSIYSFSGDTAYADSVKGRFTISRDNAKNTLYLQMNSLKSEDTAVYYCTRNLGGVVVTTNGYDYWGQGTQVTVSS VL: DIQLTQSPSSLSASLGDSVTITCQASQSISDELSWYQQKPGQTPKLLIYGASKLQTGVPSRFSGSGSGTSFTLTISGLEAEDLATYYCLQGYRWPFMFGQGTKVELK"
parameter_measured = "kon"
value = 285000

[[record]]
binder = "48H1 (Fab, V domains shown, Periplasmic Fab; Suffix 'g2, R4' not explained; also called 48H1g2, R4) VH: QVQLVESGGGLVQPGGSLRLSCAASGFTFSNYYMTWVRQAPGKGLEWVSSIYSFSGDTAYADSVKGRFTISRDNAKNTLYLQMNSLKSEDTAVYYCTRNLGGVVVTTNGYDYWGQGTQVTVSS VL: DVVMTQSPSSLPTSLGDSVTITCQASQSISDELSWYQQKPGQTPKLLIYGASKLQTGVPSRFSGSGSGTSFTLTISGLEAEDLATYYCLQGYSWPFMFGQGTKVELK"
parameter_measured = "kon"
value = 112000

[[record]]
binder = "55E10 (Fab, V domains shown, Periplasmic Fab; Suffix 'g1' not explained; also called 55E10g1) VH: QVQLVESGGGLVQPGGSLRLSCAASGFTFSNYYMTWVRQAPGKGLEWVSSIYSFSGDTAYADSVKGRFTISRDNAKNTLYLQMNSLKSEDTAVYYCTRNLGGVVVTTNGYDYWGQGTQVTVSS VL: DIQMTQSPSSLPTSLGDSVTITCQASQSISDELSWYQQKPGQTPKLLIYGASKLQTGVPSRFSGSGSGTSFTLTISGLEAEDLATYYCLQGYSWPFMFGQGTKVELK"
parameter_measured = "kon"
value = 145000


Consider the additional binder presented here.
Bench note: what kon did 55A11 (Fab, V domains shown, Periplasmic Fab; Suffix 'd' of the label not explained; also called 55A11d) VH: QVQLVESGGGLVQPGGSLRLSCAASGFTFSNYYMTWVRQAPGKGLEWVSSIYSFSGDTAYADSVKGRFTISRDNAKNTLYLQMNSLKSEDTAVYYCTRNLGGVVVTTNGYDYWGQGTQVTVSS VL: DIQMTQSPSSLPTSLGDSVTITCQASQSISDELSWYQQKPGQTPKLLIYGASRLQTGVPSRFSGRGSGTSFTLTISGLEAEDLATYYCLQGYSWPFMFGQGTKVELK show?
144000

// data source = patent US20220073604A1
